Where do the numbers come from? From patent US9718804B2.

Target: GSK3α (Homo sapiens, UniProt P49840)
Sequence (P49840 whole entry, species assumed): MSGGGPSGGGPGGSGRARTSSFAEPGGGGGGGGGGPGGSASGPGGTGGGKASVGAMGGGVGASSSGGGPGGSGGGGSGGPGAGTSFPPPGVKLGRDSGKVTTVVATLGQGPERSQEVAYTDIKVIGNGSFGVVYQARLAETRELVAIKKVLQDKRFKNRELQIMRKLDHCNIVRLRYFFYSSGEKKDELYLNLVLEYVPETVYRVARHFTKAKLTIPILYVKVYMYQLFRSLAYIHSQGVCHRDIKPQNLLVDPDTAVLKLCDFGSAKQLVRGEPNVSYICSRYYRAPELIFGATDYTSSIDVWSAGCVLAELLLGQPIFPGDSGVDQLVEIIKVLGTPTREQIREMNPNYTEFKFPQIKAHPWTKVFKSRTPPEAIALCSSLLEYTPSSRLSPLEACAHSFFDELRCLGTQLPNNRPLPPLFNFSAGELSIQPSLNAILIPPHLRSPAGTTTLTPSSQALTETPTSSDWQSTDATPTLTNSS
Test: GSK3α kinase assay (Caliper LabChip, fluoresceinated peptide substrate)
Type: biochemical
Procedure: The kinase assay was performed in V-bottom 384-well plates. […] The reaction was incubated at room temperature for 20 hours and terminated by adding 45 μl of 35 mM EDTA to each sample. The reaction mixture was analyzed on the Caliper LabChip3000 (Caliper, Hopkinton, Mass.) by electrophoretic separation of the unphosphorylated substrate and phosphorylated product. […] Compounds were dissolved at 10 mM in dimethylsulfoxide (DMSO) and evaluated at eleven concentrations. […]
Output condition met for records whose IC50 is lower than 800 pM, condition not met for records at or above 800 pM.

Find out if reported IC50 for O=C(Nc1cncc(-c2ccccc2F)c1)c1ccnc(Nc2cccc(C(F)(F)F)n2)c1 [Example 134] is less than 800 pM
condition not met

Determine if CCC1(c2cc(Cl)ncc2NC(=O)c2ccnc(Nc3ccc(C(F)(F)F)cn3)c2)OCCO1 [Example 79] shows IC50 strictly lower than 800 pM.
condition met

Strictly below 800 pM in IC50? CCOc1ccncc1NC(=O)c1ccnc(Nc2ccc(C#N)cn2)c1 [Example 16]
condition met

Quick check: IC50 of Cc1cc(N2CCC(F)(F)CC2)c(NC(=O)c2ccnc(Nc3ccc(C(F)(F)F)cn3)c2)cn1 [Example 72] under 800 pM?
condition met

IC50 strictly < 800 pM for this compound? CC(C)(C)S(=O)(=O)c1ccncc1NC(=O)c1ccnc(Nc2ccc(C(F)(F)F)cn2)c1 [Example 187]
condition met

API: query returns whether the compound falls strictly under 800 pM in IC50. Query: CCC1(c2cc(Cl)ncc2NC(=O)c2ccnc(Nc3ccc(C(F)(F)F)cn3)c2)OC(C)C(C)O1 (stereo not shown) [Example 81]
condition not met

In the record for CC1(COc2ccncc2NC(=O)c2ccnc(Nc3ccc(C(F)(F)F)cn3)c2)CC1 [Example 44] , is IC50 less than 800 pM?
condition met

Item O=C(Nc1cnncc1Br)c1ccnc(Nc2ccc(C(F)(F)F)cn2)c1 [Example 197] : IC50 beneath 800 pM, strictly?
condition not met

Please indicate whether the reported IC50 of O=C(Nc1cncc(OCC(F)(F)F)c1)c1ccnc(Nc2cccc(C(F)(F)F)n2)c1 [Example 123] is strictly below 800 pM.
condition not met

Consider the compound CCC1(c2cc(Cl)ncc2NC(=O)c2ccnc(Nc3ccc(F)cn3)c2)OCCO1 [Example 113] . Is its IC50 strictly less than 800 pM?
condition met

Please let me know if O=C(Nc1cnc(Cl)cc1N1CCC(F)(F)CC1)c1ccnc(Nc2ccc(C(F)(F)F)cn2)c1 [Example 70] shows IC50 below 800 pM.
condition not met

Does the reported IC50 of the following compound sit strictly below 800 pM? CC1(c2cc(F)ncc2NC(=O)c2ccnc(Nc3ccc(C(F)(F)F)cn3)c2)OCCO1 [Example 82]
condition not met

Lab note: confirm whether the reported IC50 for this compound is below 800 pM, equality not counting. compound: Cn1ncc(NC(=O)c2ccnc(Nc3ccc(C(F)(F)F)cn3)c2)c1C1(C)OCCO1 [Example 207]
condition met

I wonder whether O=C(Nc1cncc(N2CCOCC2)c1)c1ccnc(Nc2ccc(C(F)(F)F)cn2)c1 [Example 121] has IC50 below 800 pM. Can you tell?
condition not met

Determine whether this compound shows IC50 lower than 800 pM (ties excluded): CC1CC1COc1cncc(NC(=O)c2ccnc(Nc3cccc(C(F)(F)F)n3)c2)c1 (stereo not shown) [Example 126]
condition not met

Item O=C(Nc1cnccc1OCC(F)(F)F)c1ccnc(Nc2ccc(C(F)(F)F)cn2)c1 [Example 18] : IC50 beneath 800 pM, strictly?
condition met

Record Cc1cccc(Nc2cc(C(=O)Nc3cncc(-c4ccccc4F)c3)ccn2)n1 [Example 137] : is its IC50 strictly below 800 pM?
condition not met

Please determine if CC(C)Sc1ccncc1NC(=O)c1ccnc(Nc2ccc(C(F)(F)F)cn2)c1 [Example 173] is below 800 pM in terms of IC50.
condition met

Consider the compound C[C@@H]1CO[C@](c2cc(Cl)ncc2NC(=O)c2ccnc(Nc3ccc(C(F)(F)F)cn3)c2)(C2CC2)O1 [Example 96] . Is its IC50 strictly less than 800 pM?
condition met

I wonder whether CC(C)(C)COc1ccncc1NC(=O)c1ccnc(Nc2ccc(C(F)(F)F)cn2)c1 [Example 17] has IC50 below 800 pM. Can you tell?
condition not met

Consider the compound CCC(O)(c1cc(Cl)ncc1NC(=O)c1ccnc(Nc2ccc(C(F)(F)F)cn2)c1)C1CC1 (stereo not shown) [Example 101] . Is its IC50 strictly less than 800 pM?
condition not met

###

Target: UniProt P49841
Sequence (P49841 whole entry, species assumed): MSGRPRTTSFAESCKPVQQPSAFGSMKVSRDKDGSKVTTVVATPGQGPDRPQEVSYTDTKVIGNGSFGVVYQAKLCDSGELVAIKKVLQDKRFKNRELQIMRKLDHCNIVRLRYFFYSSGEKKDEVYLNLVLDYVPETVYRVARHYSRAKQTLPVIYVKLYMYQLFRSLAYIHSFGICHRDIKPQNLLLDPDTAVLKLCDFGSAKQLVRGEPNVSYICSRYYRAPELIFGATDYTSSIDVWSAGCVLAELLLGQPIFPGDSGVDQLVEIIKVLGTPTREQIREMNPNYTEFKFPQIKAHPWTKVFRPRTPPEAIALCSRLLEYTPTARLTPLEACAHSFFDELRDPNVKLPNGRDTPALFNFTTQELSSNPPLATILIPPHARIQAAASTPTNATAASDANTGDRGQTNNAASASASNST
Assay: GSK3β kinase assay (Caliper LabChip, fluoresceinated peptide substrate)
Type: biochemical
Conditions: first value of the cell; 250 pM enzyme, 20 uM ATP, 20 hours at room temperature; read-out: GSK3β/α (nM): GSK3β IC50
For each record, write down the corresponding IC50.
Respond with the bare value in nM.

// fetch IC50; item: O=C(Nc1cnc(Cl)cc1C(=O)C1CC1)c1ccnc(Nc2ccc(C(F)(F)F)cn2)c1 ; system: UniProt P49841
8.8

Fill in IC50 for O=C(Nc1cnccc1N1CCCCC1)c1ccnc(Nc2ccc(C(F)(F)F)cn2)c1 tested with UniProt P49841.
0.24

Please indicate recorded IC50 of O=C(Nc1cnccc1-c1ccc(Cl)cc1)c1ccnc(Nc2ccc(Cl)cn2)c1 measured with UniProt P49841.
2.7

Enter IC50 (test system UniProt P49841) for CC1(COc2ccncc2NC(=O)c2ccnc(Nc3ccc(C(F)(F)F)cn3)c2)CC1
1.4

Give IC50 for O=C(Nc1cnccc1-c1ccccc1)c1ccnc(Nc2ccc(Cl)cn2)c1 tested on UniProt P49841.
0.9

# return IC50 for O=C(Nc1cnccc1-c1ccc(F)cc1)c1ccnc(Nc2ccc(C(F)(F)F)cn2)c1 , test system: UniProt P49841
2.1

Provide UniProt P49841 IC50 reading for CCCSc1ccncc1NC(=O)c1ccnc(Nc2ccc(C(F)(F)F)cn2)c1 .
0.75

Write IC50 of O=C(Nc1cncc(-c2ccccc2F)c1)c1ccnc(Nc2cccc(Cl)n2)c1 ; system used: UniProt P49841
3.5

Determine reported IC50 for CCc1nc(Nc2cc(C(=O)Nc3cncc(-c4ccccc4F)c3)ccn2)ccc1C#N ; test system: UniProt P49841.
4.5

Fetch value of IC50 on UniProt P49841 for O=C(Nc1cnccc1-c1ccc(F)cc1)c1ccnc(Nc2cccc(Cl)n2)c1 .
2.9

Please look at CC[C@@]1(c2cc(Cl)ncc2NC(=O)c2ccnc(Nc3ccc(C(F)(F)F)cn3)c2)OC[C@H](C)O1 and tell me its recorded IC50 on UniProt P49841.
1.6

Give reported IC50 for O=C(Nc1cncc(-c2cccc(F)c2F)c1)c1ccnc(Nc2cccc(C(F)(F)F)n2)c1 (UniProt P49841)
2.3

Tell me IC50 of O=C(Nc1cnccc1[S+]([O-])c1ccccc1)c1ccnc(Nc2ccc(C(F)(F)F)cn2)c1 (stereo not shown) when tested on UniProt P49841.
3.9

State the measured IC50 (UniProt P49841) of O=C(Nc1cnccc1C1=CCCCC1)c1ccnc(Nc2ccc(C(F)(F)F)cn2)c1
2.9

Identify measured IC50 obtained with UniProt P49841 for NC(=O)c1ccc(Nc2cc(C(=O)Nc3cncc(-c4ccccc4F)c3)ccn2)nc1 .
16

Please report IC50 with UniProt P49841 for item CC1OC(C)(c2cc(Cl)ncc2NC(=O)c2ccnc(Nc3ccc(C(F)(F)F)cn3)c2)OC1C (stereo not shown) .
4.5

For UniProt P49841, give IC50 of the listed compound: COC(=O)/C=C/c1ccc(Nc2cc(C(=O)Nc3cncc(-c4ccccc4F)c3)ccn2)nc1
23

Fetch value of IC50 on UniProt P49841 for COc1cccc(Nc2cc(C(=O)Nc3cncc(-c4ccccc4F)c3)ccn2)n1 .
5.4

Please report IC50 with UniProt P49841 for item O=C(Nc1cnccc1-c1ccc(F)cc1C(F)(F)F)c1ccnc(Nc2ccc(C(F)(F)F)cn2)c1 .
0.51

###

Target: GSK3α (Homo sapiens)
Assay: GSK3α kinase assay (Caliper LabChip, fluoresceinated peptide substrate)
Format: biochemical
Cut-off 6 nM on IC50: below means TRUE, at or above means FALSE.

A record lists O=C(Nc1cnccc1OCC(F)F)c1ccnc(Nc2ccc(C(F)(F)F)cn2)c1 [Example 42] . Is its IC50 below 6 nM?
TRUE

Here's an entry: O=C(Nc1cnc(F)cc1N1CCOCC1)c1ccnc(Nc2ccc(C(F)(F)F)cn2)c1 [Example 73] . Is its IC50 below 6 nM?
TRUE

For this molecule, is IC50 lower than 6 nM? O=C(Nc1cncc(-c2ccccc2Cl)c1)c1ccnc(Nc2cccc(C(F)(F)F)n2)c1 [Example 145]
TRUE

A record lists CC(C)C(O)(c1cc(Cl)ncc1NC(=O)c1ccnc(Nc2ccc(C(F)(F)F)cn2)c1)C1CC1 (centres unmarked) [Example 102] . Is its IC50 below 6 nM?
FALSE
